- Protocol notes: Selectivity index, ratio of CC50 for human MT4 cells to EC50 for HIV1 3B infected in human MT4 cells
- Type: toxicity, cell-based
- Run parameters: HIV-1 3B infected MT4 cells, read-out: Ratio CC50/EC50
Property measured: selectivity ratio
Hey, just send me the number, nothing else.

Entry `Cc1cc(C)cc(Cn2c(=O)ccn(CC(=O)Nc3cccc(Cl)c3)c2=O)c1` — recorded selectivity ratio = 6

The compound listed as `Cc1cc(C)cc(Cn2c(=O)ccn(CC(=O)Nc3ccccc3Cl)c2=O)c1` has a reported selectivity ratio of 17

Sure, the documented selectivity ratio for `COc1ccccc1NC(=O)Cn1ccc(=O)n(Cc2cc(C)cc(C)c2)c1=O` is 16

Measured selectivity ratio, `Cc1cc(C)cc(Cn2c(=O)ccn(CC(=O)Nc3ccc(Cl)cc3)c2=O)c1` : 11

Per the records, this compound ( `Cc1cc(Br)cc(Cn2c(=O)ccn(CC(=O)Nc3ccccc3)c2=O)c1` ) has selectivity ratio equal to 17

Recorded selectivity ratio (compound `Cc1cc(C)cc(Cn2c(=O)ccn(CC(=O)Nc3cccc(C)c3C)c2=O)c1` ): 8
